Tested System: Cyclin-dependent kinase 2 (Homo sapiens, UniProt P24941)
Measurement Type: IC50

Molecule | Reported Measurement
COc1ccc2cc(-c3c(-c4ccncc4)nc(-c4ccc([S+](C)[O-])cc4C)n3C)ccc2c1 (stereo unspecified) | > 30 µM

====

Tested System: Insulin receptor (Homo sapiens, UniProt P06213)
Sequence (P06213 28-758 limits assumed): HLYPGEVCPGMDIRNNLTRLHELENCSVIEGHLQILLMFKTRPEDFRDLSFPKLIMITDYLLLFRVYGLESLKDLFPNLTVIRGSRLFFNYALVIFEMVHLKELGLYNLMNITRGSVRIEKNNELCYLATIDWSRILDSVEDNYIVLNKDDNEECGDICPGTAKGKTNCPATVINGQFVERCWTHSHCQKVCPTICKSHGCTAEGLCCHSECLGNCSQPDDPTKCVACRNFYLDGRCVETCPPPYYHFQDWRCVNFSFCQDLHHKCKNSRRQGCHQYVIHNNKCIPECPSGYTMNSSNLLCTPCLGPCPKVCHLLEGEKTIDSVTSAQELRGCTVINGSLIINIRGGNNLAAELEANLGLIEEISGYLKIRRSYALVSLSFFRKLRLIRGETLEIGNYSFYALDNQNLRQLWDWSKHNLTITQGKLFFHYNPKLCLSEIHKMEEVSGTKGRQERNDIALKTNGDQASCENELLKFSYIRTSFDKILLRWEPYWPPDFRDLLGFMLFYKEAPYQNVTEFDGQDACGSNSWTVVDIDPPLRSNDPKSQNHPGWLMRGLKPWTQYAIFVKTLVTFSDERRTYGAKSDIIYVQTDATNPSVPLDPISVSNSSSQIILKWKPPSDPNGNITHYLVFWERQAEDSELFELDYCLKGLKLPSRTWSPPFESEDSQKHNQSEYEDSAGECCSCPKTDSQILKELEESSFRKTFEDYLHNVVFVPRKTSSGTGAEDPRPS
Sequence (P06213 763-1382 limits assumed): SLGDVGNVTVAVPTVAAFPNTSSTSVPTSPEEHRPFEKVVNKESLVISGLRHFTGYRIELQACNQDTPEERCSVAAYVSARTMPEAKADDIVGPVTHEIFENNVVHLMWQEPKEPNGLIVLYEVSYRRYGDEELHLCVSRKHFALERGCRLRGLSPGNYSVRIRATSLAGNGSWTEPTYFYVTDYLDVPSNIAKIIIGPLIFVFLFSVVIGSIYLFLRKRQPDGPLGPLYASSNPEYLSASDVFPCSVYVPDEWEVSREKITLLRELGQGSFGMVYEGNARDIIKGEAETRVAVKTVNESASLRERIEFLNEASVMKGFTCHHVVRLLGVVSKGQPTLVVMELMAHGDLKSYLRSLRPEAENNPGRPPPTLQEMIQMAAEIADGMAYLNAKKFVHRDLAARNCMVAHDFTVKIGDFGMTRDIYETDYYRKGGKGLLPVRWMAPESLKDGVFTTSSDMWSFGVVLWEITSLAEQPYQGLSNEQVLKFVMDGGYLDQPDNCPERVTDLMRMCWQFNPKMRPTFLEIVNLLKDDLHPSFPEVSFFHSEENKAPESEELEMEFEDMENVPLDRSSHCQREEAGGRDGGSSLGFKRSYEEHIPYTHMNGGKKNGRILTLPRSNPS

Compound | IC50
COc1ccc2cc(-c3c(-c4ccncc4)nc(-c4ccc([S+](C)[O-])cc4C)n3C)ccc2c1 (stereo unspecified) | > 30 µM
